Origin of the recorded values: patent EP2014287A1

- Test system: humanen Prostaglandin E2 (Subtyp EP2) Rezeptor (Homo sapiens)
- Sequence (P43116 whole entry): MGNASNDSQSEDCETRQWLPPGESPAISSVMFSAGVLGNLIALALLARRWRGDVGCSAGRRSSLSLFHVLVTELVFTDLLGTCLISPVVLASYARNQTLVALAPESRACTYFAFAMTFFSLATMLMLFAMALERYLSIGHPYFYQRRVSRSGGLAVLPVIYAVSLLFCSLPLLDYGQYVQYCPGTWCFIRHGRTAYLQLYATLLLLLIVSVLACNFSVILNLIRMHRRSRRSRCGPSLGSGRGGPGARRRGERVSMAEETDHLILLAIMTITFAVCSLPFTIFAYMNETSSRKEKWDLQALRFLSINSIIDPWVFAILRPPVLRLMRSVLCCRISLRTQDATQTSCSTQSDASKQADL
- Assay explanation: cAMP antagonism test (HTRF cAMP detection, in presence of PGE2)
- Conditions: cAMP Antagonismustest, read-out: Antagonismus [IC50
Property name: IC50 (nM)

>>> df
                            smiles_notation  numeric_readout
0  Cc1[nH]c2c(F)ccc(C)c2c1CCNC(=O)/C=C/c1cc(F)cc(F)c1              830
1  Cc1[nH]c2c(F)ccc(C)c2c1CCNC(=O)CCc1ccc(F)cc1             1500
2  CCOc1cccc(CCC(=O)NCCc2c(C)[nH]c3c(F)ccc(C)c23)c1             1200
